# MEASURED_TARGET: T1, human CD103 (integrin Alpha-E) / human integrin Beta-7 heterodimer on cells (human, UniProt P38570 19-1179; P26010 20-798)
# T1 construct: The same id is used for native CD103 on human CD103+CD8+ T cells (tumor digests, TGF-beta induced T cells); the assay field tells which cells; also called hCD103/hBeta7; CHO.K1-hCD103/hBeta7
# T1 sequence (P38570 19-1179 limits assumed, chain 1 of 2): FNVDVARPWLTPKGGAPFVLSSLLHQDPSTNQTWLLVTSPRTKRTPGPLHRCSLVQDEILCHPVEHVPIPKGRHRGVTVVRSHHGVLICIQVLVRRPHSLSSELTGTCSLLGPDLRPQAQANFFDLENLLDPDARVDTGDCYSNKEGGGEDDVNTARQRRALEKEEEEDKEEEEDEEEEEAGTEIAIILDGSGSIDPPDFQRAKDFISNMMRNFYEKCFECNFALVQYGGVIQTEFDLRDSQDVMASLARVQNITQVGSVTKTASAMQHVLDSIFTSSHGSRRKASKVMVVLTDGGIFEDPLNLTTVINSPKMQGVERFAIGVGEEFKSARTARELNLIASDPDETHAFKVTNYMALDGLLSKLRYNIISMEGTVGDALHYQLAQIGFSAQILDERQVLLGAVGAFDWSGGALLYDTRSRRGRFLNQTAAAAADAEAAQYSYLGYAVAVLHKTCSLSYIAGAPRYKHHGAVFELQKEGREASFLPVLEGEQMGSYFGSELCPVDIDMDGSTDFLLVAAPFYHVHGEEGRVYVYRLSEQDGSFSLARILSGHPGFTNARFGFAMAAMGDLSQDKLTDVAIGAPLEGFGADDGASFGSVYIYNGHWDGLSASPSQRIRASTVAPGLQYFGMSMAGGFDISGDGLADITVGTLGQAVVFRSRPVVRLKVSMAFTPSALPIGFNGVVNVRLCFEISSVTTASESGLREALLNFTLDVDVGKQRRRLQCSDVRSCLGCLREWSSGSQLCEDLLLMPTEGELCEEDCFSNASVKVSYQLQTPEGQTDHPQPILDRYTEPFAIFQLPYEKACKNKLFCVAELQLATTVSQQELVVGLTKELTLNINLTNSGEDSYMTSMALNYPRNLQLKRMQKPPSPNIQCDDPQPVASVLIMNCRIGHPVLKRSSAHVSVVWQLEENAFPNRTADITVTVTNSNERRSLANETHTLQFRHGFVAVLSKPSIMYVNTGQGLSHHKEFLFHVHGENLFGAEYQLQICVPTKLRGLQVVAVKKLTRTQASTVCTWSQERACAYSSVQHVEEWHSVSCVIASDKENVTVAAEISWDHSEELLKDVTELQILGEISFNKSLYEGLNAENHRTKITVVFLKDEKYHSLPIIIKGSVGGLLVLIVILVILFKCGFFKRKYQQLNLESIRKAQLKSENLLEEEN
# T1 sequence (P26010 20-798 limits assumed, chain 2 of 2): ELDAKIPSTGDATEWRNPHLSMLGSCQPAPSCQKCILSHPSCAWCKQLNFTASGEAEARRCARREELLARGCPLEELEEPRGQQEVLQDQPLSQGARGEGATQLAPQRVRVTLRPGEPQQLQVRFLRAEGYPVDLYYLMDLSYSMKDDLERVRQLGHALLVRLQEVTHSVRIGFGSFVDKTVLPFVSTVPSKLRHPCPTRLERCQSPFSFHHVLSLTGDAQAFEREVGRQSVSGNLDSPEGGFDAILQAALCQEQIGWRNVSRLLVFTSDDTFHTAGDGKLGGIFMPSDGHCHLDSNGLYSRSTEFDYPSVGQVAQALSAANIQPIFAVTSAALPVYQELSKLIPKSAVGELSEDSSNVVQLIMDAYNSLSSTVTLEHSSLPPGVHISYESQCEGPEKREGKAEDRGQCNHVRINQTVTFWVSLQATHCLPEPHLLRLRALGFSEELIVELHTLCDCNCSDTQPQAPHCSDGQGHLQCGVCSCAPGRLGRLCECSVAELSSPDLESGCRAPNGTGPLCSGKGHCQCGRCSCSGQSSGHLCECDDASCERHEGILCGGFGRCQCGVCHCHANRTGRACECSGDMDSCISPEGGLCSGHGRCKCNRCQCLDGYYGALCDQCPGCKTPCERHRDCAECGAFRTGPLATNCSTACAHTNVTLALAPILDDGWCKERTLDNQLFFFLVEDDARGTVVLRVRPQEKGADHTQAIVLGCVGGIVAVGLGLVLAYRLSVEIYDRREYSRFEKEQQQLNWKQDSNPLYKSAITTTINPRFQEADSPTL
# TEST: cell ELISA on CHO.K1-humanCD103/beta7 cells, abs 450-610
READOUT_LABEL: EC50 (read off the curve)

Q: Given hCD103.02A (antibody, V domains shown, also called clone 02A) VH: EVQLQESGPSLVKPSQTLSLTCSVTGDSITSGYWNWIRKFPGNKLEYMGYITYSGSTYYNPSLKSRISITRDTSKNQYYLQFNSVTTEDTATYYCARGYYGSDAMDYWGQGTSVTVSS VL: DIVMTQSHKFMSTSVGDRVSITCKASQDVSTAVAWYQQKPGQSPKLLIYSASYRYTGVPDRFTGSGSGTDFTFTISSVQAEDLAVYYCQQHYSPPWTFGGGTKLEIK , state its recorded EC50 (read off the curve).
A: ~10 ng/mL
